The measured values listed here are drawn from the supplement of paper PMC4466140.

Kindly supply the reported SPOT peptide array binding signal intensity values for the records listed here.
system tested: ScBbc1
measurement protocol: SPOT peptide array binding signal intensity (averaged, normalized) (arbitrary units (background-subtracted, floor 0; scale differs between SH3 domains)); higher = stronger binding of the SH3 domain to the peptide
Answers are plain numbers.

Here are 2 binders together with their reported answers.
INSERT INTO measurements (binder, assay_result) VALUES
  ('GQYRRTIVIPRRFFT', 2.5),
  ('QRIRKIPGIPLMSVG', 32.5);

Please fill in: SPOT peptide array binding signal intensity reported for APERAVPILPPRNNV = 4.25
